# testProtocol: 19F NMR-based octanol/water logP determination
# statedConditions: n-octanol/water, logP average with error (standard deviation), octanol/water, 25 °C, 19F NMR, triplicate; column Error
logP values, listed per item

>  <molecule>
OCC1(F)CC1 [E2, (1-fluorocyclopropyl)methanol]

>  <logP>
-0.054

$$$$
>  <molecule>
CC(CO)C(F)(F)F (stereo not shown)

>  <logP>
0.978

$$$$
>  <molecule>
CC(C)(F)CO [D2, 2-fluoro-2-methylpropan-1-ol]

>  <logP>
0.104

$$$$
>  <molecule>
CC(CO)C(F)F (stereo not shown)

>  <logP>
0.583

$$$$

---

# testProtocol: physchem
# statedConditions: logP average with error (standard deviation)
measuredParameter: logP

>  <molecule>
CC(CO)CF (stereo not shown) [D3, 3-fluoro-2-methylpropan-1-ol]

>  <measuredParameter>
logP

>  <readoutNumber>
0.289

$$$$

---

# testProtocol: 19F NMR-based octanol/water logP determination
# statedConditions: n-octanol/water, logP (average logP), octanol/water, 25 °C, 19F NMR, triplicate

>  <compound>
CC(C)(F)CO [D2, 2-fluoro-2-methylpropan-1-ol]

>  <logP>
0.1

$$$$
>  <compound>
CC(CO)C(F)(F)F (stereo not shown) [D5, 3,3,3-trifluoro-2-methylpropan-1-ol]

>  <logP>
0.98

$$$$
>  <compound>
OCC1(F)CC1 [E2, (1-fluorocyclopropyl)methanol]

>  <logP>
-0.05

$$$$
>  <compound>
CC(CO)C(F)F (stereo not shown) [D4, 3,3-difluoro-2-methylpropan-1-ol]

>  <logP>
0.58

$$$$

---

# testProtocol: physchem
# statedConditions: logP (individual measurement)
measuredParameter: logP

>  <molecule>
CC(CO)CF (stereo not shown)

>  <readoutNumber>
0.28

$$$$

Provenance of the data: paper PMC7476584
